- subject-of-test: T1, human IL-36R (human, UniProt Q9HB29 20-575)
- T1 sequence (looked up): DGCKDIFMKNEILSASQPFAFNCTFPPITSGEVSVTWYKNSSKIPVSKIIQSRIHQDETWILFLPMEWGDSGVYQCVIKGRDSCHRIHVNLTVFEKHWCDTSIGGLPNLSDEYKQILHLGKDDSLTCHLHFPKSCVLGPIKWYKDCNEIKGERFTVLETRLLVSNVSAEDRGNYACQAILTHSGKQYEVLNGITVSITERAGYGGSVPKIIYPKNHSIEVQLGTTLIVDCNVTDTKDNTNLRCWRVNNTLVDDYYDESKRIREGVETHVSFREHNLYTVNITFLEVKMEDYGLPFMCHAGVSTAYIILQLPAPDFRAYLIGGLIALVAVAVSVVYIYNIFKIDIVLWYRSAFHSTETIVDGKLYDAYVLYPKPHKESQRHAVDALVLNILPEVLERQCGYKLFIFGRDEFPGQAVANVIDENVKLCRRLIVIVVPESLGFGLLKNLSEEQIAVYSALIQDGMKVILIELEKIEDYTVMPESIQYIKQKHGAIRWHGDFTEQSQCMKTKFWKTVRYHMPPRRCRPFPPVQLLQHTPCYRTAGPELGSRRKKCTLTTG
- test-protocol: cell-based or functional assay
quantity-kind: IC50 of GM-CSF release, NCI/ADR-RES cells stimulated with IL-36γ (µg/mL)
Express your answer in µg/mL, writing the number without its unit.

Recorded IC50 of GM-CSF release, NCI/ADR-RES cells stimulated with IL-36γ (binder humanized anti-IL-36R antibody 900513 (antibody, V domains shown, IgG1 (vector with L234A, L235A) and human kappa) VH: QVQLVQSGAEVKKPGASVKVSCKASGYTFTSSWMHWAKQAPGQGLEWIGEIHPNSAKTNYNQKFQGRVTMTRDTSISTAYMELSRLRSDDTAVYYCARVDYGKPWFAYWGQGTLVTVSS VL: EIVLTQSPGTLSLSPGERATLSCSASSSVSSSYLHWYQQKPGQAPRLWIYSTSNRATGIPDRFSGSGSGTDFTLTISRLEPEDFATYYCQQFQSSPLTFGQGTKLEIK ): 0.0179
